Every entry's value here was drawn from BigSolDB 2.1.

Settings: in n-propanol, 285.65 K
endpoint.label: solubility (mole fraction)
// keep it numeric: no unit symbol after the value

**Q:** Please report solubility (mole fraction) for the following molecule: `Cc1c(C(=O)O)cccc1[N+](=O)[O-]`
**A:** 0.0127

###

Details: in ethanol, 288.15 K
endpoint.label: solubility (mole fraction)

**Q:** Please report solubility (mole fraction) for the following compound: `Cc1c(C(=O)O)cccc1[N+](=O)[O-]`
**A:** 0.0186

###

Details: in ethanol, 318.15 K
endpoint.label: solubility (mole fraction)
// keep it numeric: no unit symbol after the value

**Q:** Please report solubility (mole fraction) for the following compound: `Cc1c(C(=O)O)cccc1[N+](=O)[O-]`
**A:** 0.064
